Reference source: ChEMBL document CHEMBL3779881

# System: Mus musculus
# assay: AUC in C57BL/6 mouse at 15 mg/kg, iv after 24 hrs by LC-MS/MS analysis
# Assay type: ADME, organism-based
# Parameters: dose 15 mg/kg, time < 24 hr, route intravenous
# condition-set: in vivo
measured-property: AUC (ng·h/mL)

In [3]: df
Out[3]:
                              line_notation  target_or_test_system  measured_property  endpoint_value
0  COc1cc2[nH]c(C#N)cc2c(C)c1CN1CCC(Nc2ncnc3sc(CC(F)(F)F)cc23)CC1           Mus musculus                AUC            9397

A: Cc1c(CN2CCC(Nc3ncnc4sc(CC(F)(F)F)cc34)CC2)c(O)cc2[nH]c(C#N)cc12
B: N#Cc1cc2cc(CN3CCC(Nc4ncnc5sc(CC(F)(F)F)cc45)CC3)c(O)cc2n1Cc1cn[nH]c1
Ask: Return label of the item with the larger AUC. Candidates: A , B . Could you answer with the label of the item you picked?
Reply: B
(B: 17897 ng·h/mL, A: 5666 ng·h/mL)
